target: recombinant USP30 (amino acids 57-517 of the human sequence) (Homo sapiens (Human), UniProt Q70CQ3); assay: In vitro USP30 biochemical assay (Ubiquitin-Rhodamine); conditions: USP30 IC50 μM (avg), Ubiquitin-Rhodamine substrate 25 nM, 1.5 nM recombinant USP30
Sequence (Q70CQ3 57-517): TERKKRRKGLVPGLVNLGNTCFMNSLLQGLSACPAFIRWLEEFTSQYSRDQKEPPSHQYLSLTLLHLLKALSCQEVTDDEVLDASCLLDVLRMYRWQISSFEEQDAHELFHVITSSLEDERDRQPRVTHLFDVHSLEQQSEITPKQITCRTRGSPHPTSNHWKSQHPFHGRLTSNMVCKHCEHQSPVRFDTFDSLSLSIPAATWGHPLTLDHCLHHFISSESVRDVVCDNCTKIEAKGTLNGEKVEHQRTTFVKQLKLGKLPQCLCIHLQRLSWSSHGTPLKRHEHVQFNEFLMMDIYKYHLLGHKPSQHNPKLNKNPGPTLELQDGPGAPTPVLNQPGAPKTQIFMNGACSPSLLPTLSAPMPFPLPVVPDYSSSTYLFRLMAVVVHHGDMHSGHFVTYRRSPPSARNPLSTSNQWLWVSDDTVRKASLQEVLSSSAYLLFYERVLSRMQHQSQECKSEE
parameter: IC50

Read the entry COc1cc(NC(=O)[C@H](Cc2ccccc2)NC(=O)c2ccc(F)cc2)ccc1S(=O)(=O)NC(C)(C)C#N and write its reported IC50. 0.05 to 1 µM

Read the entry O=C(N[C@@H](Cc1ccccc1)C(=O)Nc1ccc(S(=O)(=O)NC2CCC2)cc1)c1cccnc1 and write its reported IC50. 0.05 to 1 µM

Read the entry CC(C)(C)NS(=O)(=O)c1ccc(NC(=O)C2Cc3cccnc3CN2C(=O)c2ccc(F)cc2)cc1 (stereo not shown) and write its reported IC50. 1 to 10 µM

Read the entry CN(C(=O)c1ccc(F)cc1)[C@@H](Cc1ccccc1)C(=O)Nc1ccc(S(=O)(=O)NC23CC(C2)C3)cc1 and write its reported IC50. 1 to 10 µM

Data provenance is patent US11845724B2.
